measure: melting point

Consider the following illustrative entries.
compoundstructurestring=Cc1nn(C)c(O)c1C(=O)c1ccc2sc(=O)n(Cc3ccccc3)c2c1C measure="melting point" value="153 to 156 °C"
compoundstructurestring=C=CCn1c(=O)sc2ccc(C(=O)c3cnn(C)c3O)c(C)c21 measure="melting point" value="155 to 158 °C"
compoundstructurestring=CCn1c(=O)oc2ccc(C(=O)c3cnn(C)c3O)c(C)c21 measure="melting point" value="156 to 157 °C"
compoundstructurestring=CCCn1c(=O)sc2ccc(C(=O)c3c(C)nn(C)c3O)c(C)c21 measure="melting point" value="56 to 61 °C"
compoundstructurestring=CCCn1c(=O)sc2ccc(C(=O)c3cnn(C)c3O)c(C)c21 measure="melting point" value="135 to 137 °C"

Any idea what melting point was measured for COc1cccc(Cn2c(=O)sc3ccc(C(=O)c4cnn(C(C)C)c4O)c(C)c32)c1 ?
71 to 74 °C

Fill in the blank: the reported melting point of Cc1c(C(=O)c2cnn(C)c2O)ccc2oc(=O)n(C)c12 is ____.
200 to 203 °C
